# credit: the RNAGym collection of RNA variant scans (doi:10.1073/pnas.2313332121)

Please go through the items and note down their polymerase ribozyme fitness (log ratio).
B1: TPR 5TU (parent)
chain: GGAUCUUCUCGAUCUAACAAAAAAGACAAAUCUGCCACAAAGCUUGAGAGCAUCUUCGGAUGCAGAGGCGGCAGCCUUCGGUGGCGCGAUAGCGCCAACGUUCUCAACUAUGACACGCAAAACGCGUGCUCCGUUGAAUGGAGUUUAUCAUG

Variants of: B1
Assay Text: polymerase ribozyme fitness, log enrichment relative to wild type (log ratio); higher = more active; in vitro selection for triplet polymerase activity
This sample holds only a part of the variants without activity.
Give bare numbers.

Example variants with recorded polymerase ribozyme fitness (log ratio):
- Mutation List: "C18G A24U C76A C95U G141A"
  polymerase ribozyme fitness (log ratio): -3.98
- Mutation List: "G84A C93U"
  polymerase ribozyme fitness (log ratio): -1.83

Take each entry in turn and give its polymerase ribozyme fitness (log ratio).
1. U13A A73G G84A
2. U44A G46C C75G U102A A120U U130G
3. C69U C72U
4. C36A G84U C114A A120U G143U
5. G25C G83U
6. C76U C95U
7. A40C C57A U139C
8. U56A G58C G92A A106G

Reply:
[-0.387, -3.99, -1.99, -4.19, -2.85, 0.961, -3.43, -3.51]
